# test method notes: Single-dose pharmacokinetics, Cynomolgus monkey
# Assay type: in vivo, male)
# condition context: male, cynomolgus monkey, plasma; IV 0.3 mg/kg, free base; read-out: Vdss
reported endpoint: Vd (L/kg)
Hi! Could you send only the number? It should be in L/kg, unit omitted.

q: Item Cc1c(N2CCC3(CC2)CO[C@@H](C)[C@H]3N)nc(C)n(-c2cccc(Cl)c2Cl)c1=O (atropisomer, axis not shown; (Ra)) [Compound (10b)] has what recorded Vd?
a: 2.74

---

# test method notes: Phase 1/1B first-in-human study, safety and PK (Cohorts 1-5)
# Type: in vivo
# condition context: human, plasma, oral, 150 mg, 150 mg QD, C1D1, N=3
reported endpoint: AUC(0-t) (ng·h/mL)
Numeric only. Scale: ng·h/mL

q: Quick one: AUC(0-t) for Cc1c(N2CCC3(CC2)CO[C@@H](C)[C@H]3N)nc(C)n(-c2cccc(Cl)c2Cl)c1=O (atropisomer, axis not shown; (Ra)) [Compound (10b)] ?
a: 9650

---

# test method notes: Single-dose pharmacokinetics, CD-1 mouse
# Type: in vivo, mouse (CD-1, female)
# condition context: female, CD-1, mouse, plasma; IV 1 mg/kg, free base; read-out: Vdss
reported endpoint: Vd (L/kg)
Reply with just the number (in L/kg).

q: Look up Vd for this molecule: Cc1c(N2CCC3(CC2)CO[C@@H](C)[C@H]3N)nc(C)n(-c2cccc(Cl)c2Cl)c1=O (atropisomer, axis not shown; (Ra)) [Compound (10b)]
a: 3.84

---

# test method notes: Phase 1/1B first-in-human study, safety and PK (Cohorts 1-5)
# Type: in vivo
# condition context: human, plasma, oral, 80 mg, 80 mg QD, C2D1, N=1; read-out: t1/2 (converted)
# Excerpt: The initial results were from Cohorts 1-5 of the Phase 1/1B First-in-Human Study of Example 6. No safety findings impacting the risk or benefit of compound (10b) reported in the 19 patients dosed. Nine (9) treatment-emergent serious adverse events (SAEs) were reported in 7 patients, none of which were deemed related to the treatment with compound (10b).
reported endpoint: half-life (h)
Give the value, in units of h, as a plain number.

q: Look up half-life for this compound: Cc1c(N2CCC3(CC2)CO[C@@H](C)[C@H]3N)nc(C)n(-c2cccc(Cl)c2Cl)c1=O (atropisomer, axis not shown; (Ra)) [Compound (10b)]
a: 10

---

# test method notes: Single-dose pharmacokinetics, Cynomolgus monkey
# Format: in vivo, male)
# condition context: male, cynomolgus monkey, plasma; IV 0.3 mg/kg, free base; read-out: AUC0→24
reported endpoint: AUC(0-t) (µM·h)
The answer is to be given in µM·h; state only the numeric part.

q: For the compound shown here, Cc1c(N2CCC3(CC2)CO[C@@H](C)[C@H]3N)nc(C)n(-c2cccc(Cl)c2Cl)c1=O (atropisomer, axis not shown; (Ra)) [Compound (10b)] , give the reported AUC(0-t).
a: 1.82

---

# Tested on: KYSE-520 xenograft tumors
# test method notes: Pharmacodynamics in KYSE-520 xenograft tumors (DUSP6 / MPAS-plus mRNA)
# Format: in vivo, NSG mice
# condition context: Mus musculus, KYSE-520; plasma concentration, PK/PD relationship; read-out: in vivo IC50
reported endpoint: IC50 (nM)
Answer in nM, number only, no unit symbol.

q: What value of IC50 has been recorded for this entry: Cc1c(N2CCC3(CC2)CO[C@@H](C)[C@H]3N)nc(C)n(-c2cccc(Cl)c2Cl)c1=O (atropisomer, axis not shown; (Ra)) [Compound (10b)]
a: 1500

---

# test method notes: Single-dose pharmacokinetics, CD-1 mouse
# Format: in vivo, mouse (CD-1, female)
# condition context: female, CD-1, mouse, plasma; IV 1 mg/kg, free base; read-out: AUC0→24
reported endpoint: AUC(0-t) (µM·h)
Reply with just the number (in µM·h).

q: What value of AUC(0-t) has been recorded for this entry: Cc1c(N2CCC3(CC2)CO[C@@H](C)[C@H]3N)nc(C)n(-c2cccc(Cl)c2Cl)c1=O (atropisomer, axis not shown; (Ra)) [Compound (10b)]
a: 1.39

---

# test method notes: Single-dose pharmacokinetics, CD-1 mouse
# Format: in vivo, mouse (CD-1, female)
# condition context: female, CD-1, mouse, plasma; IV 1 mg/kg, free base; read-out: Clp (converted)
reported endpoint: clearance

q: Request the reported clearance associated with Cc1c(N2CCC3(CC2)CO[C@@H](C)[C@H]3N)nc(C)n(-c2cccc(Cl)c2Cl)c1=O (atropisomer, axis not shown; (Ra)) [Compound (10b)]
a: 25.7 mL/min/kg

---

# test method notes: Single-dose pharmacokinetics, Sprague Dawley rat
# Format: in vivo, male)
# condition context: male, Sprague Dawley, rat, plasma; oral 10 mg/kg, free base; read-out: Tmax (mean)
# Experimental: The pharmacokinetic (PK) parameters of Compound (10b) (freebase) were determined following single intravenous (IV) and oral (PO) administration in female CD-1 mouse, female C57BL/6 mouse (PO only), male Sprague Dawley rat, male Beagle dog, and male Cynomolgus monkey. […]
reported endpoint: Tmax (min)
Lab book: enter the figure in min, no units written.

q: Consider the molecule Cc1c(N2CCC3(CC2)CO[C@@H](C)[C@H]3N)nc(C)n(-c2cccc(Cl)c2Cl)c1=O (atropisomer, axis not shown; (Ra)) [Compound (10b)] and give its measured Tmax.
a: 55.2

---

# test method notes: Single-dose pharmacokinetics, Cynomolgus monkey
# Assay type: in vivo, male)
# condition context: male, cynomolgus monkey, plasma; oral 1 mg/kg, free base
# Method: The pharmacokinetic (PK) parameters of Compound (10b) (freebase) were determined following single intravenous (IV) and oral (PO) administration in female CD-1 mouse, female C57BL/6 mouse (PO only), male Sprague Dawley rat, male Beagle dog, and male Cynomolgus monkey. […]
reported endpoint: Cmax (nM)
Express your answer in nM, writing the number without its unit.

q: Would you mind telling me what Cmax value was observed for Cc1c(N2CCC3(CC2)CO[C@@H](C)[C@H]3N)nc(C)n(-c2cccc(Cl)c2Cl)c1=O (atropisomer, axis not shown; (Ra)) [Compound (10b)] ?
a: 430

---

# test method notes: Phase 1/1B first-in-human study, safety and PK (Cohorts 1-5)
# Assay type: in vivo
# condition context: human, plasma, oral, 150 mg, 150 mg QD, C2D1, N=3
reported endpoint: AUC(0-t) (ng·h/mL)
Answer in ng·h/mL, number only, no unit symbol.

q: Need AUC(0-t) of Cc1c(N2CCC3(CC2)CO[C@@H](C)[C@H]3N)nc(C)n(-c2cccc(Cl)c2Cl)c1=O (atropisomer, axis not shown; (Ra)) [Compound (10b)] , thanks.
a: 18200

---

# test method notes: Single oral dose exposure in NOD/SCID mice
# Type: in vivo
# condition context: male, mouse, plasma, single oral dose 30 mg/kg
reported endpoint: AUC(0-inf) (ng·h/mL)
Number only, in ng·h/mL; omit the unit.

q: Given the compound Cc1c(N2CCC3(CC2)CO[C@@H](C)[C@H]3N)nc(C)n(-c2cccc(Cl)c2Cl)c1=O (atropisomer, axis not shown; (Ra)) [Compound (10b)] , what is its reported AUC(0-inf)?
a: 30600

---

# test method notes: Phase 1/1B first-in-human study, safety and PK (Cohorts 1-5)
# Format: in vivo
# condition context: human, plasma, oral, 400 mg, 400 mg QD, C2D1, N=3
reported endpoint: Tmax (h)
Record the value in h, omitting the unit from your answer.

q: Look up Tmax for this compound: Cc1c(N2CCC3(CC2)CO[C@@H](C)[C@H]3N)nc(C)n(-c2cccc(Cl)c2Cl)c1=O (atropisomer, axis not shown; (Ra)) [Compound (10b)]
a: 3

---

# test method notes: Single-dose pharmacokinetics, CD-1 mouse
# Assay type: in vivo, mouse (CD-1, female)
# condition context: female, CD-1, mouse, plasma; oral 300 mg/kg; read-out: mean Tmax
reported endpoint: Tmax
Reply with a number, then the unit it belongs to.

q: Give its Tmax value. Item: Cc1c(N2CCC3(CC2)CO[C@@H](C)[C@H]3N)nc(C)n(-c2cccc(Cl)c2Cl)c1=O (atropisomer, axis not shown; (Ra)) [Compound (10b)]
a: 15 min

---

# test method notes: Single-dose pharmacokinetics, Cynomolgus monkey
# Format: in vivo, male)
# condition context: male, cynomolgus monkey, plasma; oral 1 mg/kg, free base; read-out: AUC0→24
reported endpoint: AUC(0-t)
Provide a numeric answer, followed by its unit.

q: Recorded AUC(0-t) of Cc1c(N2CCC3(CC2)CO[C@@H](C)[C@H]3N)nc(C)n(-c2cccc(Cl)c2Cl)c1=O (atropisomer, axis not shown; (Ra)) [Compound (10b)] , please.
a: 4.52 µM·h

---

# test method notes: Single-dose pharmacokinetics, Sprague Dawley rat
# Assay type: in vivo, male)
# condition context: male, Sprague Dawley, rat, plasma; IV 0.3 mg/kg, free base; read-out: Vdss
reported endpoint: Vd (L/kg)
Give the quantity in L/kg, number only.

q: // query Vd value for entry Cc1c(N2CCC3(CC2)CO[C@@H](C)[C@H]3N)nc(C)n(-c2cccc(Cl)c2Cl)c1=O (atropisomer, axis not shown; (Ra)) [Compound (10b)]
a: 6.05
